Test system: OVCAR-8 ovarian
experiment: NCI tumour cell line growth inhibition, 48 h
endpointName: TGI

[
  {
    "smilesData": "CNc1ncnc2c1nnn2C",
    "TGI": "> 100 µM"
  }
]

Batch request: TGI for each of the following molecules.
1. CN[C@@H]1C[C@H]2O[C@@](C)([C@@H]1OC)n1c3ccccc3c3c4c(c5c6ccccc6n2c5c31)C(=O)N[C@H]4O
2. O=c1cc(-c2ccccc2)nc(/C=C(\O)c2ccncc2)n1-c1ccccc1
3. Cc1cc(C)c2c(=N)c3ccccc3n(CCCCCCn3c4ccccc4c(=N)c4c(C)cc(C)nc43)c2n1

// result
1: > 5.44 µM; 2: > 100 µM; 3: 3.14 µM

Batch request: TGI for each of the following molecules.
1. COc1ccc(OC)c(NCC#N)c1
2. CCNc1cc2c3c(c1)CCCN3CCC2

// result
1: > 100 µM; 2: 56.4 µM

###

Test system: SNB-19 CNS
experiment: NCI tumour cell line growth inhibition, 48 h
Please provide measured TGI for the entries that follow.

[
  {
    "smilesData": "CN1CCN(/C(N)=C(\\C#N)C(=O)Nc2ccccc2)CC1",
    "TGI": "> 100 µM"
  },
  {
    "smilesData": "O=c1cc(-c2ccccc2)[nH]c2c(Cl)cccc12",
    "TGI": "> 100 µM"
  }
]

The recorded TGI with SNB-19 CNS for COc1ccc(-c2nnc(CCCCCCCCc3nnc(-c4ccc(OC)cc4)n3N)n2N)cc1 was > 100 µM

###

System: SNB-75 CNS
experiment: NCI tumour cell line growth inhibition, 48 h
endpointName: TGI

// solved cases for TGI follow
[
  {
    "compound": "O=c1oc2c/c(=C\\c3ccccc3)c(=O)c3cccc1c3-2",
    "endpointName": "TGI",
    "measuredResult": "> 100 µM"
  },
  {
    "compound": "O=C(O)CN(CC(=O)O)Cc1ccn(-c2cccc(-n3ccc(CN(CC(=O)O)CC(=O)O)n3)n2)n1",
    "endpointName": "TGI",
    "measuredResult": "> 100 µM"
  },
  {
    "compound": "COc1ccc2oc(=Nc3ccc(F)cc3)c(C(N)=O)cc2c1",
    "endpointName": "TGI",
    "measuredResult": "29.5 µM"
  },
  {
    "compound": "N#Cc1ccc(Nc2cnc3ccc(N)cc3n2)cc1",
    "endpointName": "TGI",
    "measuredResult": "> 100 µM"
  },
  {
    "compound": "Cc1cc(Oc2cnc(=O)[nH]c2)cs1",
    "endpointName": "TGI",
    "measuredResult": "> 100 µM"
  },
  {
    "compound": "CN(C(=O)C12C3(C(=O)C(C)(C)C)C4C5(C#N)C3C1(C(=O)C(C)(C)C)C5C42C(=O)C(C)(C)C)C(C)(C)C (stereo not given)",
    "endpointName": "TGI",
    "measuredResult": "> 50 µM"
  }
]

Batch request: TGI for each of the following compounds.
1. COc1cc(/C=c2/c3ccccc3n3c2cc(-c2ccccc2)[n+]3C)cc(OC)c1OC
2. Cc1cc([N+](=O)[O-])ccc1NS(=O)(=O)c1cc(Cl)ccc1Cl
3. CC(C)(C)c1cc(/C=C/C(=O)CC(=O)/C=C/c2cc(C(C)(C)C)c(O)c(C(C)(C)C)c2)cc(C(C)(C)C)c1O
4. N#C/C(=C\Nc1ccccn1)C(=O)c1ccco1

// result
1. 15.2 µM
2. 38.3 µM
3. > 50 µM
4. > 100 µM
